B1: Osa-1-4 twister ribozyme (parent)
chain: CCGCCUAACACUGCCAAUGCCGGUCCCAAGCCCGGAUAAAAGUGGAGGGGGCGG

# Variants of: B1
# run-description: self-cleavage, relative activity (ratio to wild type); higher = more cleavage; co-transcriptional
self-cleavage of 0.1 or higher: Yes. Under 0.1: No.

Known results for variants:
A29G G51C : No
G50A U37C : Yes
A46G C9G : No
G45U G51C : No
A28U G23C : No

stdin: Is the recorded value of self-cleavage equal to or greater than 0.1 for this variant? G44A G54U
stdout: Yes

stdin: // inclusive: self-cleavage at least 0.1? input: G48U U43A
stdout: No

stdin: Evaluate A10C U37C : self-cleavage at minimum 0.1?
stdout: No
